target-desc: EGFR TMLR (T790M/L858R), H1975 cell line (Homo sapiens, UniProt P00533, L858R/T790M)
Construct: H1975 cell line (CRL-5908; Lot BA70803) was obtained from American Type Culture Collection
Sequence (P00533 25-1210 T790M/L858R): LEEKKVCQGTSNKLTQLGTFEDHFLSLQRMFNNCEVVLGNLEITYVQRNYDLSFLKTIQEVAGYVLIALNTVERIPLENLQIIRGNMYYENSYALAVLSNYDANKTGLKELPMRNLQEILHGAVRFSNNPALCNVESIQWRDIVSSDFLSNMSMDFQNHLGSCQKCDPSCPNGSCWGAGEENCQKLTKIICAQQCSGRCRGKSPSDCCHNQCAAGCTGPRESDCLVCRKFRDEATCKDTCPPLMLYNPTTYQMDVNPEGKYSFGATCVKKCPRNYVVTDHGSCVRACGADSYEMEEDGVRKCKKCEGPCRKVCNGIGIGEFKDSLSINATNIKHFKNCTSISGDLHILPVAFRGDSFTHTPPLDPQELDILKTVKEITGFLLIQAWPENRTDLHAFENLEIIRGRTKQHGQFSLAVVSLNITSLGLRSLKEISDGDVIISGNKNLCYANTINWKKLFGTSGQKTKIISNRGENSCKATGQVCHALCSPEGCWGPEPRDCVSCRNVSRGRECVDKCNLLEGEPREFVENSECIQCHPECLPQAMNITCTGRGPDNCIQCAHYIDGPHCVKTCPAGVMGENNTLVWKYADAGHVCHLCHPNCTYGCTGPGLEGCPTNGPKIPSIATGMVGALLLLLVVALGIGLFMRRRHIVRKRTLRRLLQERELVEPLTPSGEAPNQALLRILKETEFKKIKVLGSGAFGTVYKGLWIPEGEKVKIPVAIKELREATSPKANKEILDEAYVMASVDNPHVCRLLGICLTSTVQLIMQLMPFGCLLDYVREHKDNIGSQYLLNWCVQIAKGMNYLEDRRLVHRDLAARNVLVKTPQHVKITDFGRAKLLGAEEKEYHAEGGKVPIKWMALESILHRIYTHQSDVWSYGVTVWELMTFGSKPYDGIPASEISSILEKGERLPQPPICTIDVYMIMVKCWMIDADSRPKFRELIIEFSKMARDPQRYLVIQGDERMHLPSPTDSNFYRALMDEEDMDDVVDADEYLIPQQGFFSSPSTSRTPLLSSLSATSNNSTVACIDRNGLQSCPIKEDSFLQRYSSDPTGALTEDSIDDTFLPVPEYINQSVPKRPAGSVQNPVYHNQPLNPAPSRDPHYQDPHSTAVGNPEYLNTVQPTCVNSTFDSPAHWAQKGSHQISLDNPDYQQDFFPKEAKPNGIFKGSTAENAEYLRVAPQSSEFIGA
method-notes: HTRF Phospho EGFR TMLR Assay (Cellular)
recorded-conditions: H1975 cells, 16 hours compound incubation
The reader will find reported pIC50 values listed item by item below.
# pIC50 = -log10(concentration in molar units)

Previously resolved entries follow.
1. COc1c(-c2ccc(N3CCOCC3)cc2)cc(Cl)c2cn(C(C(=O)Nc3nccs3)c3ncn4c3C[C@@H](F)C4)nc12 (mixture of isomers) [Example 19]	9.00
2. O=C(Nc1nccs1)C(c1ncn2c1CCC2)n1cc2c(F)cc(-c3ccc(N4CCOCC4)c(F)c3)cc2n1 (stereo not drawn) [Example 11]	9.00
3. O=C(Nc1nccs1)C(c1ncn2c1CCC2)n1cc2c(Cl)cc(-c3ccc(N4CCOCC4)cc3)c(F)c2n1 (stereo not drawn) [Example 10]	9.00
4. O=C(Nc1nccs1)C(c1ncn2c1CCC2)n1cc2c(Cl)cc(-c3ccc(N4CCOCC4)c(F)c3)c(F)c2n1 (stereo not drawn) [Example 17]	8.70

Lookup result for O=C(Nc1nccs1)C(c1ncn2c1C[C@@H](F)C2)n1cc2c(F)cc(-c3ccc(N4CCOCC4)c(F)c3)cc2n1 (stereo partly drawn) [Example 5] ; measured pIC50: 9.00

Lookup result for O=C(Nc1nccs1)C(c1ncn2c1CCC2)n1cc2c(Cl)cc(-c3ccc(N4CCOCC4)cc3)c(Cl)c2n1 (stereo not drawn) [Example 14] ; measured pIC50: 8.52
